Origin of measurements: PubChem BioAssay (NCI)

# System: SK-MEL-5 melanoma
# Assay Protocol: NCI tumour cell line growth inhibition, 48 h; in the data active means GI50 below about 0.43 µM; inactive means the rest
Hi! Could you answer with just one of these? Yes for active, No for inactive

Sample answers from the record:
compound="C=C(C)[C@@H]1CC[C@@]2(C(=O)O)CC[C@]3(C)C(CCC4[C@@]5(C)CCC(OS(=O)(=O)c6ccccc6)C(C)(C)C5CC[C@]43C)C12 (stereo partly specified)" category=No
compound=CNc1nc(NC2CCCC2)nc(Sc2ccc(OC)cc2)n1 category=No
compound=CCOC(=O)[C@@H](C)C[C@H](Cc1ccccc1)NC(=O)c1csc([C@@H](C[C@H](C(C)C)N(C)C(=O)[C@@H](NC(=O)[C@H]2CCCCN2C)C(C)(C)C)OC(C)=O)n1 category=Yes
compound=Clc1ccc(OCc2nnc3n2N=C(c2ccc(Cl)cc2Cl)CS3)c(Cl)c1 category=No
compound=CNC(=O)c1cc(Oc2ccc(NC(=O)Nc3ccc(Cl)c(OC(F)(F)F)c3)c(F)c2)ccn1 category=No
compound=Cc1ccc2/c(=C/c3ccc(N(C)C)cc3)c3cc(-c4ccccc4)[n+](C)n3c2c1 category=Yes
compound=O=C1c2c(c3c4ccc(Br)cc4oc3c3[nH]c4ccccc4c23)C(=O)N1O category=No
compound=Cc1sc(C)c(-c2ccc(CO)o2)c1-c1ccc(CO)o1 category=No

## Input Give the logged outcome of this assay for the following compound: `CN1CCN(Cc2ccc(NC(=O)c3ccc(C(C)(C)C)c(C#Cc4cnc5cccnn45)c3)cc2C(F)(F)F)CC1`
## Output No

## Input Fill in: this test's call for `NCCN1CCN(c2nccc(-c3ccc4ccccc4c3)n2)CC1` is ___
## Output No

## Input What call does the record list for `Cc1ncc(NC(=O)c2ccc(CN3CCN(C)CC3)c(C(F)(F)F)c2)cc1Nc1nccc(-c2cccnc2)n1` ?
## Output No
